target: CDK1/Cyclin B1 (Homo sapiens, UniProt P06493); assay: CDK1/Cyclin B1 TR-FRET biochemical assay (1 mM ATP); conditions: 90 minutes reaction
Sequence (P06493 whole entry): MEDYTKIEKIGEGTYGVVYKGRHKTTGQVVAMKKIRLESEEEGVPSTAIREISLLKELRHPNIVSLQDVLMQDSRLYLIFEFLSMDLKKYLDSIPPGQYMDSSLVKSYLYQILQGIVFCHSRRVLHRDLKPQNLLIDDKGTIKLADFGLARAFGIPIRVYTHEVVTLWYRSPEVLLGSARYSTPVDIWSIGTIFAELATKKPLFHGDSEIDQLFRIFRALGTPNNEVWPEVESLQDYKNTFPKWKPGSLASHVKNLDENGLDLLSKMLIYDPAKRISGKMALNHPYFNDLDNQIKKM
Sequence (P14635 whole entry partner): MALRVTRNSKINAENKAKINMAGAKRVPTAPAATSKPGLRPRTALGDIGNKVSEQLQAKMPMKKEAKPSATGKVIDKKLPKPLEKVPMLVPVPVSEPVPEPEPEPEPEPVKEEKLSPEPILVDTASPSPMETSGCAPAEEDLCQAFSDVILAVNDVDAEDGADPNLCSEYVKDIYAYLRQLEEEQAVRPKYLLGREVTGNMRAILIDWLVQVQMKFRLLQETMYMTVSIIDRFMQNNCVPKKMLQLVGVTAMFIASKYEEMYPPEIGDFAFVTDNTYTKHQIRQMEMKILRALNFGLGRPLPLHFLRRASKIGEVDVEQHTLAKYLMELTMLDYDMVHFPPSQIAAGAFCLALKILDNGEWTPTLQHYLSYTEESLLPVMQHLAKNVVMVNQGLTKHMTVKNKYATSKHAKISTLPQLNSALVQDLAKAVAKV
// values below are reported IC50
Entry rule: numbers only, all in nM.

Given CC1(NC(=O)OC2CCC(c3cc(Nc4ccc5c(c4F)CS(=O)(=O)C5)n[nH]3)C2)CCOC1 (single isomer, unassigned) [Example 13a] , state its recorded IC50.
493

Given O=C(NC1CCCC1)O[C@H]1CC[C@@H](c2cc(Nc3ccc4c(c3F)CS(=O)(=O)C4)n[nH]2)C1 (relative stereo) [Example 23] , state its recorded IC50.
410

Given CCNC(=O)OC1CCC(c2cc(Nc3ccc4c(c3F)CS(=O)(=O)C4)n[nH]2)C1 (single isomer, unassigned) [Example 18a] , state its recorded IC50.
1300

Given C[C@]1(O)CC[C@@H](NC(=O)OC2CCC(c3cc(Nc4ccc5c(c4F)CS(=O)(=O)C5)n[nH]3)C2)CC1 (stereo partly shown) [Example 25] , state its recorded IC50.
768

---
Given O=C(NCCC(F)(F)F)O[C@H]1CC[C@@H](c2cc(Nc3ccc4c(c3F)CS(=O)(=O)C4)n[nH]2)C1 (relative stereo) [Example 16] , state its recorded IC50.
155

Given O=C(N[C@H]1CC[C@H](O)CC1)OC1CCC(c2cc(Nc3ccc4c(c3F)CS(=O)(=O)C4)n[nH]2)C1 (stereo partly shown) [Example 26] , state its recorded IC50.
376

Given CC(C)NC(=O)O[C@H]1CC[C@@H](c2cc(Nc3cc4c(cc3F)CS(=O)(=O)C4)n[nH]2)C1 (relative stereo) [Example 27] , state its recorded IC50.
7450

Given CCNC(=O)OC1CCC(c2cc(Nc3ccc4c(c3F)CS(=O)(=O)C4)n[nH]2)C1 (single isomer, unassigned) [Example 18b] , state its recorded IC50.
555

Given Cc1c(Nc2cc([C@@H]3CC[C@H](OC(=O)NC(C)C)C3)[nH]n2)ccc2c1CS(=O)(=O)C2 (relative stereo) [Example 35] , state its recorded IC50.
169

###

target: CDK1/Cyclin B1 (Homo sapiens, UniProt P06493); test: CDK1/Cyclin B1 TR-FRET biochemical assay (0.015 mM ATP); conditions: 120 minutes reaction
// values below are reported IC50
Entry rule: numbers only, all in nM.

Given CCCNC(=O)O[C@H]1CC[C@@H](c2cc(Nc3ccc4c(c3F)S(=O)(=O)CC4)n[nH]2)C1 (relative stereo) [Example 4] , state its recorded IC50.
191

###

test system: HEK-293 cells; experiment: HEK-293 cell cytotoxicity detection (CellTiter-Glo); assay type: cell-based; details: incubation of 72 h, CellTiter-Glo luminescence, read-out: HEK293 IC50
// values below are reported IC50
Entry rule: numbers only, all in nM.

Given CC1(NC(=O)OC2CCC(c3cc(Nc4ccc5c(c4F)CS(=O)(=O)C5)n[nH]3)C2)CCOC1 (single isomer, unassigned) [Example 13d] , state its recorded IC50.
4210

Given CC1(NC(=O)OC2CCC(c3cc(Nc4ccc5c(c4F)CS(=O)(=O)C5)n[nH]3)C2)CCOC1 (single isomer, unassigned) [Example 13b] , state its recorded IC50.
559

Pending compound:
Given CC(C)NC(=O)OC1CCC(c2cc(Nc3ccc4c(c3F)S(=O)(=O)CC4)n[nH]2)C1 (single isomer, unassigned) [Example 3a] , state its recorded IC50.
1780

###

biological target: CDK2/Cyclin E1 (Homo sapiens, UniProt P24941); experiment: CDK2/Cyclin E1 TR-FRET biochemical assay (1 mM ATP); conditions: 90 minutes reaction
// values below are reported pIC50
Kindly note that pIC50 refers to -log10 of the concentration in mol/L and answer with the value alone.

Given CC1(NC(=O)OC2CCC(c3cc(Nc4ccc5c(c4F)CS(=O)(=O)C5)n[nH]3)C2)CCOC1 (single isomer, unassigned) [Example 13a] , state its recorded pIC50.
9.30

Given O=C(N[C@H]1CC[C@@H](O)CC1)OC1CCC(c2cc(Nc3ccc4c(c3F)CS(=O)(=O)C4)n[nH]2)C1 (stereo partly drawn) [Example 17] , state its recorded pIC50.
8.64

Pending molecule:
Given O=C(NC1CCCC1)O[C@H]1CC[C@@H](c2cc(Nc3ccc4c(c3F)CS(=O)(=O)C4)n[nH]2)C1 (relative stereo) [Example 23] , state its recorded pIC50.
9.05

###

target: CDK2/Cyclin E1 (Homo sapiens, UniProt P24941); experiment: CDK2/Cyclin E1 TR-FRET biochemical assay (1 mM ATP); details: 90 minutes reaction
// values below are reported pIC50
Kindly note that pIC50 refers to -log10 of the concentration in mol/L and answer with the value alone.

Example entries and their recorded answers appear below.
Given CC(C)NC(=O)O[C@H]1CC[C@@H](c2cc(Nc3cc4c(cc3F)CSC4)n[nH]2)C1 (relative stereo) , state its recorded pIC50.
6.42

Given O=C(NC1CCOC1)OC1CCC(c2cc(Nc3ccc4c(c3F)CS(=O)(=O)C4)n[nH]2)C1 (single isomer, unassigned) [Example 24a] , state its recorded pIC50.
7.77

---
Given CC(C)(CO)NC(=O)O[C@H]1CC[C@@H](c2cc(Nc3ccc4c(c3F)CS(=O)(=O)C4)n[nH]2)C1 (relative stereo) , state its recorded pIC50.
9.10

Given O=C(NC1CCOC1)OC1CCC(c2cc(Nc3ccc4c(c3F)CS(=O)(=O)C4)n[nH]2)C1 (single isomer, unassigned) [Example 24b] , state its recorded pIC50.
7.21

Given O=C(NCCC(F)(F)F)O[C@H]1CC[C@@H](c2cc(Nc3ccc4c(c3F)CS(=O)(=O)C4)n[nH]2)C1 (relative stereo) , state its recorded pIC50.
9.15

###

biological target: CDK2/Cyclin E1 (Homo sapiens, UniProt P24941); test: CDK2/Cyclin E1 TR-FRET biochemical assay (1 mM ATP); settings: 90 minutes reaction
Readout Label: IC50
# number then unit; no other words

Given CC1(NC(=O)OC2CCC(c3cc(Nc4ccc5c(c4F)CS(=O)(=O)C5)n[nH]3)C2)CCOC1 (single isomer, unassigned) [Example 13b] , state its recorded IC50.
0.6 nM

Given C[C@]1(O)CC[C@@H](NC(=O)OC2CCC(c3cc(Nc4ccc5c(c4F)CS(=O)(=O)C5)n[nH]3)C2)CC1 (stereo partly drawn) , state its recorded IC50.
1.8 nM

Pending compound:
Given O=C(N[C@H]1CC[C@H](O)CC1)OC1CCC(c2cc(Nc3ccc4c(c3F)CS(=O)(=O)C4)n[nH]2)C1 (stereo partly drawn) , state its recorded IC50.
1.5 nM

###

molecular target: CDK2/Cyclin E1 (Homo sapiens); test: CDK2/Cyclin E1 TR-FRET biochemical assay (1 mM ATP); conditions: 90 minutes reaction
// values below are reported IC50
Entry rule: numbers only, all in nM.

Example entries and their recorded answers appear below.
Please provide the recorded IC50 for CC(C)NC(=O)O[C@H]1CC[C@@H](c2cc(Nc3ccc4c(c3F)C[S+]([O-])C4)n[nH]2)C1 (relative stereo) , tested on CDK2/Cyclin E1 (Homo sapiens).
5.3

Please provide the recorded IC50 for C[C@]1(O)CC[C@H](NC(=O)OC2CCC(c3cc(Nc4ccc5c(c4F)CS(=O)(=O)C5)n[nH]3)C2)CC1 (stereo partly shown) , tested on CDK2/Cyclin E1 (Homo sapiens).
1.1

Please provide the recorded IC50 for Cc1c(Nc2cc([C@@H]3CC[C@H](OC(=O)NC(C)C)C3)[nH]n2)ccc2c1CS(=O)(=O)C2 (relative stereo) , tested on CDK2/Cyclin E1 (Homo sapiens).
0.4

Pending compound:
Please provide the recorded IC50 for CC1(NC(=O)OC2CCC(c3cc(Nc4ccc5c(c4F)CS(=O)(=O)C5)n[nH]3)C2)CCOC1 (single isomer, unassigned) [Example 13d] , tested on CDK2/Cyclin E1 (Homo sapiens).
0.9

###

// values below are reported pIC50
biological target: CDK1/Cyclin B1 (Homo sapiens); test: CDK1/Cyclin B1 TR-FRET biochemical assay (1 mM ATP); settings: 90 minutes reaction
Kindly note that pIC50 refers to -log10 of the concentration in mol/L and answer with the value alone.

Example entries and their recorded answers appear below.
Please provide the recorded pIC50 for O=C(NCC(F)(F)F)O[C@H]1CC[C@@H](c2cc(Nc3ccc4c(c3F)CS(=O)(=O)C4)n[nH]2)C1 (relative stereo) , tested on CDK1/Cyclin B1 (Homo sapiens).
5.98

Please provide the recorded pIC50 for CC1(NC(=O)OC2CCC(c3cc(Nc4ccc5c(c4F)CS(=O)(=O)C5)n[nH]3)C2)COC1 (single isomer, unassigned) [Example 15b] , tested on CDK1/Cyclin B1 (Homo sapiens).
6.30

Please provide the recorded pIC50 for O=C(NC1COC1)O[C@H]1CC[C@@H](c2cc(Nc3ccc4c(c3F)CS(=O)(=O)C4)n[nH]2)C1 (relative stereo) , tested on CDK1/Cyclin B1 (Homo sapiens).
5.32

Please provide the recorded pIC50 for CC1(NC(=O)OC2CCC(c3cc(Nc4ccc5c(c4F)CS(=O)(=O)C5)n[nH]3)C2)COC1 (single isomer, unassigned) [Example 15a] , tested on CDK1/Cyclin B1 (Homo sapiens).
5.96

Pending molecule:
Please provide the recorded pIC50 for CC(C)NC(=O)O[C@H]1CC[C@@H](c2cc(Nc3ccc4c(c3F)CSC4)n[nH]2)C1 (relative stereo) , tested on CDK1/Cyclin B1 (Homo sapiens).
5.31
